Values compiled from PubChem BioAssay (NCI).

Test system: HCT-15 colon
Assay: NCI tumour cell line growth inhibition, 48 h; in the data active = GI50 below about 0.43 µM; inactive = the rest
Permitted responses: 1.0 = active, 0.0 = inactive

Check out these entries, answers already filled in.
entry-smiles: Cc1nc2sc(C(=O)Nc3cccc(Cl)c3C)c(N)c2cc1C(=O)c1ccccc1
label-value: 1.0
//
entry-smiles: CN1CCN(CCCOc2ccc3nc(Nc4ccc(C(F)(F)F)c(Cl)c4)ccc3c2)CC1
label-value: 0.0
//
entry-smiles: C(=C\c1nc2ccccc2s1)/c1ccc(N2CCOCC2)s1
label-value: 0.0

Called result for COc1ccc2c(c1)c(-c1nc(-c3cn(C)c4ncccc34)cs1)cn2CCCCN1CCOCC1 0.0

###

Tested on: MOLT-4 leukemia
Test: NCI tumour cell line growth inhibition, 48 h
Documented TGI across a set of molecules

Known results for molecules:
molecule: O=C(CC(=O)c1cccc([N+](=O)[O-])c1)C(=O)Nc1nc([N+](=O)[O-])cs1
TGI: > 100 µM
//
molecule: CSC1CC2C(CC1(C)SC)C2(C)C (stereo not drawn)
TGI: > 100 µM

# next molecule below
Endpoint output: TGI of O=C1C2C3CCC(C2C(=O)N1CO)C1C2C(=O)N(CO)C(=O)C2C31 (stereo not drawn) . Value? 67.7 µM

###

Test system: DU-145 prostate
Assay: NCI tumour cell line growth inhibition, 48 h
Documented TGI across a set of compounds

Known results for compounds:
compound: CC(C)N(C(=O)c1ccc(NCc2cc(O)ccc2O)cc1)C(C)C
test-system: DU-145 prostate
TGI: 30 µM

compound: CCNC(=O)c1ccc2c(c1)nc(-c1ccc(Cl)cc1)n2-c1cc(C(C)(C)C)[nH]n1
test-system: DU-145 prostate
TGI: 34.9 µM

compound: C=C(CN(C)C)C(=O)c1ccc(OC)cc1
test-system: DU-145 prostate
TGI: 10.7 µM

compound: COc1cc([N+](=O)[O-])c(OC)cc1-c1nc2n(c1/C(N)=N/C(=N)N)CCS2
test-system: DU-145 prostate
TGI: > 100 µM

compound: NN/C(=N\S(=O)(=O)c1cccc2nsnc12)Nc1ccc(Cl)cc1
test-system: DU-145 prostate
TGI: > 100 µM

compound: Cc1cc(S(=O)(=O)Nc2nc(N)nc(N(C)C)n2)c(SC(C(=O)O)c2ccccc2)cc1Cl (centres undefined)
test-system: DU-145 prostate
TGI: > 10 µM

Endpoint output: TGI of Cc1cn(CCCCOC(=O)NC(CCCNC(N)=O)C(=O)O)c(=O)[nH]c1=O (centres undefined) . Value? > 100 µM

Endpoint output: TGI of CC1=C2c3ccccc3N(S(=O)(=O)c3ccccc3)[C@H]2[C@H](C(=O)N2C3CC4CC[C@@]3(CS2(=O)=O)C4(C)C)CC1 (some centres undefined) . Value? > 100 µM

Endpoint output: TGI of O=C1c2ccccc2-n2c1nc1cc(Cl)ccc1c2=O . Value? > 100 µM

###

Test system: K-562 leukemia
Assay: NCI tumour cell line growth inhibition, 48 h
assay-endpoint: TGI

Known results for compounds:
compound: CCOC(=O)NN(C(=O)OCC)C(C(=O)c1ccc(Cl)cc1)=C1NCCN1
TGI: > 100 µM
//
compound: O=C(OC(CNc1c(C(=O)c2ccccc2)c(=O)n(Cc2ccccc2)c(=O)n1Cc1ccccc1)CN1CCCCC1)c1ccccc1 (stereo not drawn)
TGI: 31.3 µM

# next compound below
Endpoint output: TGI of Nc1ccc(-c2nc3ccc(Cc4ccc5nc(-c6ccc(N)cc6)oc5c4)cc3o2)cc1 . Value? > 100 µM
